Listed next: entries and their corresponding fraction of remaining proteolytic activity, Factor Xa.
# testedOn: Factor Xa (Homo sapiens)
# Construct: purchased Haematologic Technologies Inc. (Essex Jct., Vt.)
# Sequence (P00742 235-488 limits assumed): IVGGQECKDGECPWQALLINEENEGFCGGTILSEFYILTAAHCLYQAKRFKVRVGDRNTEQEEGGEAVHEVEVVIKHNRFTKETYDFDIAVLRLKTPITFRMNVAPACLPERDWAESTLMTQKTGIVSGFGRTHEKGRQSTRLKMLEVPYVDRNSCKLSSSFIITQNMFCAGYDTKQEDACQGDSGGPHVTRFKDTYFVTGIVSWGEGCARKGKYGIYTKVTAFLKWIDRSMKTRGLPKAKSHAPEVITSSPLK
# Sequence (P00742 41-179 limits assumed): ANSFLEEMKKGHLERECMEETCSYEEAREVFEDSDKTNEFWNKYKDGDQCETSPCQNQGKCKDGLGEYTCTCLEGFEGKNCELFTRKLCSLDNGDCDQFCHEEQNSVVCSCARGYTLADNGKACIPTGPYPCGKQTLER
# testProtocol: Specificity assay, Factor Xa
# Assay type: biochemical
# reportedConditions: 100 nM inhibitor; FXa 2.5 nM, 0.7 mM Spectrozyme fXa
Hey, just send me the number, nothing else.

- substance: "KALI-8: APPI Kunitz domain mutant, R1 LGHCRAAIPR2 FR3 (SEQ ID NO: 3) (VREVCSEQAELGHCRAAIPRWYFDVTEGKCAPFFYGGCGGNRNNFDTEEYCAAVCGSA)"
  testedOn: "Factor Xa (Homo sapiens)"
  observedValue: 1.13
- substance: "KALI-48: APPI Kunitz domain mutant, R1 TGHCRAAIPR2 FR3 (SEQ ID NO: 2) (VREVCSEQAETGHCRAAIPRWYFDVTEGKCAPFFYGGCGGNRNNFDTEEYCAAVCGSA)"
  testedOn: "Factor Xa (Homo sapiens)"
  observedValue: 0.55
- substance: "KALI-13: APPI Kunitz domain mutant, R1 SGHCRAAIPR2 FR3 (SEQ ID NO: 1) (VREVCSEQAESGHCRAAIPRWYFDVTEGKCAPFFYGGCGGNRNNFDTEEYCAAVCGSA)"
  testedOn: "Factor Xa (Homo sapiens)"
  observedValue: 0.97
- substance: "KALI-30: APPI Kunitz domain mutant, R1 EGHCRAAILR2 FR3 (SEQ ID NO: 5) (VREVCSEQAEEGHCRAAILRWYFDVTEGKCAPFFYGGCGGNRNNFDTEEYCAAVCGSA)"
  testedOn: "Factor Xa (Homo sapiens)"
  observedValue: 0.68

Now, please, on to the next substance.
Request - read-out fraction of remaining proteolytic activity, Factor Xa | tested on Factor Xa (Homo sapiens) | substance KALI-46: APPI Kunitz domain mutant, R1 EGRCRASILR2 FR3 (SEQ ID NO: 33) (VREVCSEQAEEGRCRASILRWYFDVTEGKCAPFFYGGCGGNRNNFDTEEYCAAVCGSA)
1.02

* * *

# testedOn: TF-FVIIa (tissue factor-Factor VIIa) (Homo sapiens)
# Construct: purchased Haematologic Technologies Inc. (FVIIa); TF made in house; host or cells: E. coli (TF 1-243)
# Sequence (P08709 213-466 limits assumed): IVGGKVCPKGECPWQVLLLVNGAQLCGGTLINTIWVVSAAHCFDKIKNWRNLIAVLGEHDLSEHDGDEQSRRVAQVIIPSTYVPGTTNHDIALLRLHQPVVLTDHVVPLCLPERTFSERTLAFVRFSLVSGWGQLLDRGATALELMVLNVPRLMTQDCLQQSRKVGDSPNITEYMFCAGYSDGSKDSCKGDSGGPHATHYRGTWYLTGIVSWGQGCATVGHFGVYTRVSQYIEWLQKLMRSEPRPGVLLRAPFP
# Sequence (P08709 61-212 limits assumed): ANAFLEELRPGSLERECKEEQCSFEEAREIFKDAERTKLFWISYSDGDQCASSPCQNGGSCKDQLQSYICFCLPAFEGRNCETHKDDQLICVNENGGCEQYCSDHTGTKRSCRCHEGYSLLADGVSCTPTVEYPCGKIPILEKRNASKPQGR
# Sequence (P13726 33-275 partner limits assumed): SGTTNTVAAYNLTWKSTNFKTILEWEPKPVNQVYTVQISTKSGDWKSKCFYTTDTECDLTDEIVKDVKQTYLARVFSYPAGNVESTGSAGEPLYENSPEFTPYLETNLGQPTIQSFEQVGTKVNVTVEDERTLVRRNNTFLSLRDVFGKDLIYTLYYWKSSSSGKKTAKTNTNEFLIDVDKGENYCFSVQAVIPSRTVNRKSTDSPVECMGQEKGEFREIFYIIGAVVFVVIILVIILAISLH
# testProtocol: Specificity assay, TF-FVIIa
# Format: biochemical
# reportedConditions: 100 nM inhibitor; TF 77 nM-FVIIa 14 nM, 0.7 mM S2366
So basically: is fraction of remaining proteolytic activity, TF · Factor VIIa under 0.9? Then rule met. Not under? Then rule not met.

- substance: "KALI-13: APPI Kunitz domain mutant, R1 SGHCRAAIPR2 FR3 (SEQ ID NO: 1) (VREVCSEQAESGHCRAAIPRWYFDVTEGKCAPFFYGGCGGNRNNFDTEEYCAAVCGSA)"
  discreteLabel: "rule not met"
- substance: "KALI-8: APPI Kunitz domain mutant, R1 LGHCRAAIPR2 FR3 (SEQ ID NO: 3) (VREVCSEQAELGHCRAAIPRWYFDVTEGKCAPFFYGGCGGNRNNFDTEEYCAAVCGSA)"
  discreteLabel: "rule not met"
- substance: "KALI-46: APPI Kunitz domain mutant, R1 EGRCRASILR2 FR3 (SEQ ID NO: 33) (VREVCSEQAEEGRCRASILRWYFDVTEGKCAPFFYGGCGGNRNNFDTEEYCAAVCGSA)"
  discreteLabel: "rule met"
- substance: "KALI-48: APPI Kunitz domain mutant, R1 TGHCRAAIPR2 FR3 (SEQ ID NO: 2) (VREVCSEQAETGHCRAAIPRWYFDVTEGKCAPFFYGGCGGNRNNFDTEEYCAAVCGSA)"
  discreteLabel: "rule not met"

Could you now consider this next substance?
hey, is fraction of remaining proteolytic activity, TF · Factor VIIa for KALI-30: APPI Kunitz domain mutant, R1 EGHCRAAILR2 FR3 (SEQ ID NO: 5) (VREVCSEQAEEGHCRAAILRWYFDVTEGKCAPFFYGGCGGNRNNFDTEEYCAAVCGSA) lower than 0.9 or not?
rule not met
